# System tested: Gamma-secretase subunit PEN-2 (Homo sapiens)
# Sequence (Q9NZ42 whole entry): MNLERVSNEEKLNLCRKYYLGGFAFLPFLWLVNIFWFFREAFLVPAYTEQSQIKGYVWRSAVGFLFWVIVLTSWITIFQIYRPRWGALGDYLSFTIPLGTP
# Test protocol: Inhibition of Amyloid-beta production in APP-transfected cells at level of gamma secretase
Numbered stars: 1 amine (or outer) side, 2 acyl side, 3 side chain; on linkers, the order of the positions; unused ones are H or OH. Square brackets hold non-standard residues; d marks the D form. Peptide text beside a SMILES is read from it. * marks the point of attachment. X2 = C[C@H](N[*:1])C(=O)C(F)(F)C(=O)[*:2]; Nva = CCC[C@H](N)C(=O)O; Cbz = O=C(OCc1ccccc1)*; Boc = CC(C)(C)OC(=O)*
Readout kind: IC50 (µM)

CC(C)C[C@@H](C=O)NC(=O)[C@H](CC(C)C)NC(=O)[C@H](CC(C)C)NC(=O)OCc1ccccc1 [MG-132] (Cbz-Leu-Leu-Leu-aldehyde)	200

I = CCC[C@@H](C=O)NC(=O)[C@H](CC(C)C)NC(=O)OCc1ccccc1 (Cbz-Leu-[Nva]-aldehyde)
II = CC[C@H](C)[C@H](NC(=O)[C@@H](NC(=O)OC(C)(C)C)C(C)C)C(=O)N[C@@H](C)C(=O)C(F)(F)C(=O)N[C@H](C(=O)N[C@H](C(=O)OC)[C@@H](C)CC)C(C)C (Boc-VI[X2]VI-OMe)
// task: argmin of IC50 over [ I , II ] Let me know the label of the one you choose. II
(II: 13 µM, I: 200 µM)
